# ASSAY_TARGET: human Nav1.7 (Homo sapiens)
# Sequence (Q15858 whole entry): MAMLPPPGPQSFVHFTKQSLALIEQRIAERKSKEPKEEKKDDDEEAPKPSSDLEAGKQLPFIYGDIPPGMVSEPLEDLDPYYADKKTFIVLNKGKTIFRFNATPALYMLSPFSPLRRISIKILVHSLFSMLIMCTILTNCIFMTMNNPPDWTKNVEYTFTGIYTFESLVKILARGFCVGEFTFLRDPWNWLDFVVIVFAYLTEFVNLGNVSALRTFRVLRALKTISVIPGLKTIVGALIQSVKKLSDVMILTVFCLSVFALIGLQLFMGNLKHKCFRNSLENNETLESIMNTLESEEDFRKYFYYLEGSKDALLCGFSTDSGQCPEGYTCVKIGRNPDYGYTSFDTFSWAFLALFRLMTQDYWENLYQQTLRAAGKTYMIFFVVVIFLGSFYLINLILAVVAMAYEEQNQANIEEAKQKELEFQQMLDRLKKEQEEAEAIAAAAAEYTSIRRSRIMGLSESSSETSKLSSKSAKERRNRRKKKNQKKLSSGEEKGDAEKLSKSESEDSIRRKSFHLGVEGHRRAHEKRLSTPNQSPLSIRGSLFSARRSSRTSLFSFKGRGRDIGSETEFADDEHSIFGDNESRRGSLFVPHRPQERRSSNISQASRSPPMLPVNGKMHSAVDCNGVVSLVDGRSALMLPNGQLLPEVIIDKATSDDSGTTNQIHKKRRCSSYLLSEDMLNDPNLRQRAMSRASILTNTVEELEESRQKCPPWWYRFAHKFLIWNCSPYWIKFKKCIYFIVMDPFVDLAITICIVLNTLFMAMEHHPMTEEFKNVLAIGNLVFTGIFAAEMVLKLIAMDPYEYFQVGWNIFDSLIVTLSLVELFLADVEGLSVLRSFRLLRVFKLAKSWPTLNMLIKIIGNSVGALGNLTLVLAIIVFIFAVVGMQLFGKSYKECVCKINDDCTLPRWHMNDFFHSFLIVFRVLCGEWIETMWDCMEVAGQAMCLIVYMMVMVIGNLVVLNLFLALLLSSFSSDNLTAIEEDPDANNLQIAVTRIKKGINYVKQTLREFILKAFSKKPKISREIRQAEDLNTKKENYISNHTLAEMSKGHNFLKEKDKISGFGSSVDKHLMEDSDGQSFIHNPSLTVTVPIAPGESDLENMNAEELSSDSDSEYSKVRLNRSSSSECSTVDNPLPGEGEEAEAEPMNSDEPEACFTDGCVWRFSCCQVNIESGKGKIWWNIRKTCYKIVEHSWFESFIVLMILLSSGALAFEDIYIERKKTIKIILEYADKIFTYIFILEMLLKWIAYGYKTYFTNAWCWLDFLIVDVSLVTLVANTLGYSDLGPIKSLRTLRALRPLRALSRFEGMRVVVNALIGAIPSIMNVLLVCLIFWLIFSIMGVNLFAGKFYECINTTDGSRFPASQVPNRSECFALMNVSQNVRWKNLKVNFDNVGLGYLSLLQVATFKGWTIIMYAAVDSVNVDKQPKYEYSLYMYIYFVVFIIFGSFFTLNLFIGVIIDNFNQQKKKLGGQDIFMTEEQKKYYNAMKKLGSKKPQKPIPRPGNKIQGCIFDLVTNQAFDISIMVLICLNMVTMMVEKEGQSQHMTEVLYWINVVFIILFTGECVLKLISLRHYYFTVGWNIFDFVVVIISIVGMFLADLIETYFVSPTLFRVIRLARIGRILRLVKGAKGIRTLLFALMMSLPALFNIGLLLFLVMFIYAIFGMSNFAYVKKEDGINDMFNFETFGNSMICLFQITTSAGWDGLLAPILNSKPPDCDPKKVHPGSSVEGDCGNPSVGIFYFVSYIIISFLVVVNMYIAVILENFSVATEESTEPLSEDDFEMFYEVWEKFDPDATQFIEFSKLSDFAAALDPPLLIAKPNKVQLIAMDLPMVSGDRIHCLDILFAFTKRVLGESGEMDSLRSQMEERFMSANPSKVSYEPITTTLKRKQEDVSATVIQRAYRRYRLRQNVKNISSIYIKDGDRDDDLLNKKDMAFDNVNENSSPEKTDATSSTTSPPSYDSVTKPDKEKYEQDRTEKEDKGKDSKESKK
# EXPERIMENT_DESCRIPTION: SyncroPatch 768PE automated patch clamp, two-state voltage protocol, CHO-Nav1.7 cells
# MEASUREMENT_PARAMETERS: read-out: IC50 Single Dose Inactivated state; single concentration per well method; inactivated state (-40 mV)
READOUT: pIC50
Note: pIC50 values are expressed as the negative base-10 logarithm of concentration in M.

Q: GET /values?readout=pIC50&system=human Nav1.7 (Homo sapiens)&item= CCN1CC(n2nccc2-c2cc(C(F)(F)F)ccc2Oc2ccc(S(=O)(=O)Nc3ncns3)cc2C#N)C1
Result: 8.52
